Measured activity at 10 µM accompanies every entry in the list below.
tested on: K-562; test: NCI one-dose screen; type: cell-based; conditions: Homo sapiens, K562; K-562, 10 µM; read-out: Growth Percent
Quick note: give the figure in %, leave out the unit.

Here are 3 molecules together with their reported answers.
>>> quantitative_readout("CN(C)c1ccc(/C=C/C(=O)c2ccc(-n3cc(CN4CCN(c5cc6c(cc5F)c(=O)c(C(=O)O)cn6C5CC5)CC4)nn3)cc2)cc1")
86
>>> quantitative_readout("O=C(/C=C/c1ccccc1)c1ccc(-n2cc(CN3CCN(c4cc5c(cc4F)c(=O)c(C(=O)O)cn5C4CC4)CC3)nn2)cc1")
101
>>> quantitative_readout("COc1ccc(/C=C/C(=O)c2ccc(-n3cc(CN4CCN(c5cc6c(cc5F)c(=O)c(C(=O)O)cn6C5CC5)CC4)nn3)cc2)cc1OC")
42.5

Note: attention shifts to another entry.
Prompt: Hello, I am looking for reported activity at 10 µM with K-562 for `O=C(/C=C/c1cccc(Cl)c1)c1ccc(-n2cc(CN3CCN(c4cc5c(cc4F)c(=O)c(C(=O)O)cn5C4CC4)CC3)nn2)cc1` . Could you help?
Response: 40.5
